Test system: T-47D breast
ASSAY_TEXT: NCI-60 one-dose screen, 48 h (100 = growth as untreated, 0 = no growth, -100 = all killed)
TEST_PARAMETERS: 10 µM
This is part of a sample that, as a whole, favours compounds with a hit. Of some 83,000 tested, about 20% had one in any assay.
ASSAY_METRIC: growth (%)
API: value field is a number in %; no unit string.

COMPOUND: O=c1[nH][nH]c(Nc2ccccc2)c1N=Nc1ccc(F)cc1
growth [%]: 36.4
--
COMPOUND: CN1CCc2c(sc3ncnc(N/N=C/c4cn(-c5ccccc5)nc4-c4ccc(Br)cc4)c23)C1
growth [%]: 74.2
--
COMPOUND: C/C(=N\NC(N)=S)c1ccc(Nc2nc(SC(C)C)nc(-c3ccccc3)c2C#N)cc1
growth [%]: 57.3
--
COMPOUND: Cn1c(O)c(N=Nc2nc(-c3cc4ccccc4oc3=O)cs2)c2cc(Br)ccc21
growth [%]: 82.8
--
COMPOUND: CC(=O)NS(=O)(=O)c1ccc(NC(=O)CSC2=NC(c3ccccc3)C(C(C)=O)=C(C)N2)cc1 (stereo not drawn)
growth [%]: 99.7
--
COMPOUND: CCOC(=O)C1NN(c2ccc(S(N)(=O)=O)cc2)c2nc3nc(-c4cccs4)cc(-c4cccs4)c3c(=O)n21 (stereo not drawn)
growth [%]: 85.4
--
COMPOUND: COc1cc2c(c(OC)c1OC)C(=O)CC(c1cccc(NC(=O)c3cccc(N)c3)c1)O2 (stereo not drawn)
growth [%]: 35.5
--
COMPOUND: O=c1[nH]c2ccccc2cc1CSc1ccc(Nc2nccc(-c3ccc4c(c3)OCO4)n2)cc1
growth [%]: 75.5
--
COMPOUND: O=c1c2ccccc2nc(COc2ccccc2)n1/N=C/c1ccc(F)cc1
growth [%]: 57.4
--
COMPOUND: Nc1nc(Nc2ccc(Cl)cc2)n(Cc2cccc(Br)c2)n1
growth [%]: 15.1

Param item = `COc1ccc(CN2[C@H](C(=O)NCCCCCCC(=O)NO)Cc3c([nH]c4ccccc34)[C@H]2C2CC2)cc1` ; retrieve measured growth.
-10.3

// next record `O=C(NO)c1ccc(CN2CCN(c3nc(-c4ccccc4)c4ccccc4n3)CC2)cc1`
8.88

Try the compound `O=C(NO)c1ccc(CNc2nc(-c3ccccc3)c3ccccc3n2)cc1`
-13.1
